Just for reference, ChEMBL document CHEMBL3608279 is where these values come from.

Target: DNA gyrase (Staphylococcus aureus, UniProt P0A0K8+P20831)
Sequence (P0A0K8 whole entry): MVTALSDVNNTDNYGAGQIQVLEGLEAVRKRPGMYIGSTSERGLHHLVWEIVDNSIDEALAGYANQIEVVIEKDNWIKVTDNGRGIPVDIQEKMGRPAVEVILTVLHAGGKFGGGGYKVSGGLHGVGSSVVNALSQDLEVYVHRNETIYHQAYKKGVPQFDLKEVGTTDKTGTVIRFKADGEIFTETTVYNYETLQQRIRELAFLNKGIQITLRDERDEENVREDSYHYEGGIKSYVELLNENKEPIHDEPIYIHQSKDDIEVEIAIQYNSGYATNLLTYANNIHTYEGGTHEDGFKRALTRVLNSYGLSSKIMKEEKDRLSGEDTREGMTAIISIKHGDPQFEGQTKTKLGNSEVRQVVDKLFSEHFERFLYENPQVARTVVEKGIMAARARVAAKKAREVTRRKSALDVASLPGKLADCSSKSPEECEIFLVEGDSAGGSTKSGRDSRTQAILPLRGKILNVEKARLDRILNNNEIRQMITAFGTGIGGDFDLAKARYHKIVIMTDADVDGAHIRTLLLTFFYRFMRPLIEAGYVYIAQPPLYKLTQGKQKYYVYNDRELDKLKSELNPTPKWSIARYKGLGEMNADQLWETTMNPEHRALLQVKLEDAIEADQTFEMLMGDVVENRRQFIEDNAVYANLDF
Sequence (P20831 whole entry): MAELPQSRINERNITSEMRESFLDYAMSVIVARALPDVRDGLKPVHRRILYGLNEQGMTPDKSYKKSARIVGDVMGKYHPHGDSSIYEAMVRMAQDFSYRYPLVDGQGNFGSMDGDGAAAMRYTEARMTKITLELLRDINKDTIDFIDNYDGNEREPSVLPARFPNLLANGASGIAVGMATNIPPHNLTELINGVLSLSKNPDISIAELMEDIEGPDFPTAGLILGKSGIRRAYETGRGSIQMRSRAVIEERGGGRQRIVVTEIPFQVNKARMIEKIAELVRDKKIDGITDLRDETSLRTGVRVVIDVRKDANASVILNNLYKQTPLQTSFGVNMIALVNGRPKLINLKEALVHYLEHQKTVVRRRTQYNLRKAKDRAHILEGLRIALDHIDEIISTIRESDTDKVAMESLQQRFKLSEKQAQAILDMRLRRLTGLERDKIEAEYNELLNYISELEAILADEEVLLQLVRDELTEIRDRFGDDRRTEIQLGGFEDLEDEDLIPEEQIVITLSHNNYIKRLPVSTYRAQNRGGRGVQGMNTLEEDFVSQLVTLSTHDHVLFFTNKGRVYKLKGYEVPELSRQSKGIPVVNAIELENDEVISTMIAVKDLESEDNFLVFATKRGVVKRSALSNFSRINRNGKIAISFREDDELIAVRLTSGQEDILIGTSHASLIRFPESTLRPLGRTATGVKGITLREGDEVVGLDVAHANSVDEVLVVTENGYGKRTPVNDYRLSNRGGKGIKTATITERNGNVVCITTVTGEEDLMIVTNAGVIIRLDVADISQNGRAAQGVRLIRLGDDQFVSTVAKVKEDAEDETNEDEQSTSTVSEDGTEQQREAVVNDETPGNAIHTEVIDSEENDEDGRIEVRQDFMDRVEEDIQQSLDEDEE
Assay: Inhibition of Staphylococcus aureus DNA gyrase
VALUE KIND: Ki

Consider the molecule shown here: CCNC(=O)Nc1nc2cc(-c3cnc(C(C)(C)OP(=O)(O)O)nc3)c(F)c([C@H]3CCCO3)c2[nH]1 What is its recorded Ki?
< 9 nM

Consider the molecule shown here: CCNC(=O)Nc1nc2cc(-c3cnc(C(C)(C)O)nc3)c(F)c([C@H]3CCCO3)c2[nH]1 What is its recorded Ki?
< 9 nM

====

For each record, write down the corresponding pKi.
Target: Topoisomerase IV (Staphylococcus aureus, UniProt P0C1S7+P0C1U9)
Sequence (P0C1U9 whole entry): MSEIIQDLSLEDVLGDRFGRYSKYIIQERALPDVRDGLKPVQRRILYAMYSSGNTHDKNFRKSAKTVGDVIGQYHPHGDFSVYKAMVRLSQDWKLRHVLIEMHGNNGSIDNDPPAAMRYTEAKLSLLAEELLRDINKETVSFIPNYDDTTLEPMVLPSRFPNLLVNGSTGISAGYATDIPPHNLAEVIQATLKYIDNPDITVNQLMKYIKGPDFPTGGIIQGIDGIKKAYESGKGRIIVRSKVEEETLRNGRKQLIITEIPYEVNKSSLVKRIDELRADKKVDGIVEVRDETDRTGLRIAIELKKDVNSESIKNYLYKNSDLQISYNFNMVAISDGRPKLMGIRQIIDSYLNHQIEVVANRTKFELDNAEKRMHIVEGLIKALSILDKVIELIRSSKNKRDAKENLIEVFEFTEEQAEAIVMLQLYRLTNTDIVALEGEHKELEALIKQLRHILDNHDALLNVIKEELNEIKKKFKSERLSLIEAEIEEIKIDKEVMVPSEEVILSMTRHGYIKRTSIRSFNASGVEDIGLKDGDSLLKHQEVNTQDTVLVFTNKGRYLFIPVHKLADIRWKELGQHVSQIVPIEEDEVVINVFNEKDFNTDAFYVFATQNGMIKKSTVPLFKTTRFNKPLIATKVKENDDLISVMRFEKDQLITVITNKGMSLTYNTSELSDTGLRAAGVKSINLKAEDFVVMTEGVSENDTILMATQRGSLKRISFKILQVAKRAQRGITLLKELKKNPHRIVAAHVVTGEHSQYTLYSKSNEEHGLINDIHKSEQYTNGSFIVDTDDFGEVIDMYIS
Sequence (P0C1S7 whole entry): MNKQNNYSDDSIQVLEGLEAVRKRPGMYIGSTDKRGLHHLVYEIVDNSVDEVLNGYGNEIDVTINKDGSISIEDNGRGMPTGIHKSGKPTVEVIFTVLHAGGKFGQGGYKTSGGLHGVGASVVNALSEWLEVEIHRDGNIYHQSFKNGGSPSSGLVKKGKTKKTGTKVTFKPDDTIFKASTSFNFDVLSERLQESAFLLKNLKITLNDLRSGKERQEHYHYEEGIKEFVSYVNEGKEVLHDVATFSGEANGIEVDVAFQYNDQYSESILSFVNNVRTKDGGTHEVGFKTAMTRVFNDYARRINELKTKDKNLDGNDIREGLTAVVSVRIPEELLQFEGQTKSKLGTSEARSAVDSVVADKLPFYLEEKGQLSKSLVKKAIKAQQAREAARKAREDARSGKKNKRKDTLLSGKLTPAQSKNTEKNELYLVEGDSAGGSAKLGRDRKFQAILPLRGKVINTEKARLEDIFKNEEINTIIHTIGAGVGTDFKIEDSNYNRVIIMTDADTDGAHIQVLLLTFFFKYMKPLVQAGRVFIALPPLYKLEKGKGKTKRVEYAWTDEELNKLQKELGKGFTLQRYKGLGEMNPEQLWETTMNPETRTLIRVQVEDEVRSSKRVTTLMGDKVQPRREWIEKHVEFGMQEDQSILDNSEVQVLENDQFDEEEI
Test: Inhibition of Staphylococcus aureus DNA topoisomerase 4
Keep in mind that pKi stands for -log10 of concentration in molar terms.

State its pKi on Topoisomerase IV (Staphylococcus aureus, UniProt P0C1S7+P0C1U9): CCNC(=O)Nc1nc2cc(-c3cnc(C(C)(C)O)nc3)c(F)c([C@H]3CCCO3)c2[nH]1
7.92

State its pKi on Topoisomerase IV (Staphylococcus aureus, UniProt P0C1S7+P0C1U9): CCNC(=O)Nc1nc2cc(-c3cnc(C(C)(C)OP(=O)(O)O)nc3)c(F)c([C@H]3CCCO3)c2[nH]1
7.52
